Source of measurements: patent US9708316B2

Target: HIS-TGFβR2 WT (Homo sapiens, UniProt P37173)
Sequence (P37173 23-567): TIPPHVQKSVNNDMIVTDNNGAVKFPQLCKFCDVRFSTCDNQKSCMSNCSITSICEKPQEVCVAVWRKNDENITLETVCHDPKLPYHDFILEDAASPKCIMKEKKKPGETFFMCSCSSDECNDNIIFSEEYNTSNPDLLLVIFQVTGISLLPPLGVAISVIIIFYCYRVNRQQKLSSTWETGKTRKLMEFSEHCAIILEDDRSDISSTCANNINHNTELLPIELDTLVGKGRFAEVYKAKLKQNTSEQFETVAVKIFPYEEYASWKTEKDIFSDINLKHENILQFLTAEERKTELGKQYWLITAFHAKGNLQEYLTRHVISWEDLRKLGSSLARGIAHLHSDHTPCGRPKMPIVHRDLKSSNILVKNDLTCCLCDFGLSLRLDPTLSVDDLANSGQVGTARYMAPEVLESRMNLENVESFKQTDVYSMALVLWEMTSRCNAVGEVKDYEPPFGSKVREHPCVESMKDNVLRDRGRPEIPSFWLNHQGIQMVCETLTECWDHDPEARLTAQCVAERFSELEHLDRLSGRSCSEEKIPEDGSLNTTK
Assay: HTRF probe-displacement assay, HIS-TGFβR2 WT
Assay type: binding
reportedMetric: log10 of IC50 (log10 of the value in µM)
The figures below represent log10 of IC50, where IC50 is stated in µM.

Use these answered entries as a reference point.
{"columns": ["mol", "log10 of IC50"],
 "data": [
  ["COc1cnc2c(-c3nc(C(F)(F)F)cs3)c(-c3ccnc(NC(C)=O)c3)[nH]c2c1", 1.04],
  ["CC(=O)Nc1cc(-c2[nH]c3cccnc3c2-c2cc(C)ccn2)ccn1", -0.18],
  ["CCOc1cnc2c(-c3cccc(C(F)F)n3)c(-c3ccnc(NC(C)=O)c3)[nH]c2c1", 0.63],
  ["CC(=O)Nc1cc(-c2[nH]c3cccnc3c2-c2cnc(F)c(C)c2)ccn1", -2.05]
]}

Attention now shifts to the item below.
Incoming: Please look up its log10 of IC50: `COc1cnc2c(-c3nc(C(F)F)cs3)c(-c3ccnc(NC(C)=O)c3)[nH]c2c1`
Outgoing: -0.14

====

Property: IC50; scope: individual compounds
Molecular target: UniProt:P37173
Test: HTRF probe-displacement assay, HIS-TGFβR2 WT
Assay type: binding
Give your result in µM as a bare value.

See these solved cases before continuing.
{"columns": ["compound", "reportedMetric", "observed"],
 "data": [
  ["CC(=O)Nc1cc(-c2[nH]c3c(CO)ccnc3c2-c2ccc(Cl)nc2)ccn1 [Example 278]", "IC50", 0.709],
  ["CNC(=O)c1cc(Cl)nc2c(-c3ccc(OC)nc3)c(-c3ccnc(NC(C)=O)c3)[nH]c12 [Example 56]", "IC50", 1.1]
]}

Incoming: Can you look up IC50 on UniProt:P37173 for CC(=O)Nc1cc(-c2[nH]c3cccnc3c2-c2nc(C(F)F)cs2)ccn1 [Example 200] ?
Outgoing: 0.548

Incoming: Recorded IC50 for COc1cccc(-c2c(-c3ccnc(NC(C)=O)c3)[nH]c3cccnc23)n1 [Example 2] with UniProt:P37173, please?
Outgoing: 7.85

====

Biological target: HIS-TGFβR1 T204D (Homo sapiens, UniProt P36897, T204D)
Sequence (P36897 34-503 T204D): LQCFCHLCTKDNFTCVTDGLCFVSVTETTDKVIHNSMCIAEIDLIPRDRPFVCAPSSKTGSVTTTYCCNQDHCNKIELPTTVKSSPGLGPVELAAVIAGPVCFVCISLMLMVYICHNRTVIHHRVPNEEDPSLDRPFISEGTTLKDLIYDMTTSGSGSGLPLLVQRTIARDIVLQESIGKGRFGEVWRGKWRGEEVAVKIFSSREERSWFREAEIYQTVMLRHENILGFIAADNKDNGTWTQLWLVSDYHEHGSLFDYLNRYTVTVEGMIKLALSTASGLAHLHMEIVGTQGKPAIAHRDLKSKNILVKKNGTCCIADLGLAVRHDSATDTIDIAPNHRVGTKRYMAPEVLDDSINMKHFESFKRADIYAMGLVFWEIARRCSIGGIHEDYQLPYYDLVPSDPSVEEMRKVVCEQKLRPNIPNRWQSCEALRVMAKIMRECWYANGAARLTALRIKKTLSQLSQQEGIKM
Assay: HTRF probe-displacement assay, HIS-TGFβR1 T204D
Format: binding
Details: read-out: TGFβR1 (μM) IC50
reportedMetric: log10 IC50 (log10 of the value in µM)
Scale type: logarithmic (base 10). Underlying IC50 unit: µM.

{"columns": ["mol", "reportedMetric", "observed"],
 "data": [
  ["COc1ccc(-c2c(-c3ccnc(NC(C)=O)c3)[nH]c3cc(CN)cnc23)cn1", "log10 IC50", -2.15],
  ["CC(=O)Nc1cc(-c2[nH]c3c(CO)ccnc3c2-c2cccc(C)n2)ccn1", "log10 IC50", -2.22],
  ["COc1cnc2c(-c3cccc(C(F)F)n3)c(-c3ccnc(NC(C)=O)c3)[nH]c2c1", "log10 IC50", -3.00],
  ["COc1ccc(-c2c(-c3ccnc(NC(C)=O)c3)[nH]c3cc(-c4c(C)nnn4C)cnc23)nc1", "log10 IC50", -2.40],
  ["COc1ccc(-c2c(-c3ccnc(N)c3)[nH]c3cc(Cl)cnc23)nc1", "log10 IC50", -2.10]
]}

Incoming: // returns reported log10 IC50 for input `COc1ccc(-c2c(-c3ccnc(NC(C)=O)c3)[nH]c3cc(Cl)cnc23)cn1`
Outgoing: -2.70

Incoming: Name the recorded log10 IC50 for `CC(=O)Nc1cc(-c2[nH]c3cccnc3c2-c2nc(C#N)cs2)ccn1` .
Outgoing: -0.11

Incoming: Record request: log10 IC50 value, item `CCN1CCN(CC(=O)Nc2cc(-c3[nH]c4cc(Cl)cnc4c3-c3ccc(OC)cn3)ccn2)CC1`
Outgoing: -2.30
